# credit: patent EP0746294B1

System: porcine esterase
Assay: Biodegradability of the enhancer in the presence of porcine esterase (HPLC disappearance of enhancer peak)
Format: in vitro ADME
Conditions: pig, porcine esterase in phosphate buffer, degradation, 32°C, pH 7.0
Method: A 0.1 ml aliquot of porcine esterase (235 units per mg protein) was diluted to 100 ml with pH 7.0 phosphate buffer. The enhancer solution was prepared by dissolving -12 mg (-0.045 mmoles) of the enhancer in 10 ml acetonitrile. An aliquot of 100 µl of this solution was transferred into a 10 ml volumetric flask. 9.8 ml of pH 7.0 buffer and 100 µl diluted esterase solution were added. […] The disappearance of the enhancer peak was monitored by HPLC. The absorbance wavelength was 204 nm. […]
recorded endpoint: half-life at 45 µM (h)
A number alone suffices; assume h.

Qu. I have this compound here, CCCCCCCCCCCC(=O)OC(C)CN(C)C (stereo not shown) [DAIPD] , and I need its recorded half-life at 45 µM.
Ans. 1.32
